# Tested target: human CD33 L270A (human, UniProt P20138 18-364)
# Sequence (P20138 18-364 L270A limits assumed): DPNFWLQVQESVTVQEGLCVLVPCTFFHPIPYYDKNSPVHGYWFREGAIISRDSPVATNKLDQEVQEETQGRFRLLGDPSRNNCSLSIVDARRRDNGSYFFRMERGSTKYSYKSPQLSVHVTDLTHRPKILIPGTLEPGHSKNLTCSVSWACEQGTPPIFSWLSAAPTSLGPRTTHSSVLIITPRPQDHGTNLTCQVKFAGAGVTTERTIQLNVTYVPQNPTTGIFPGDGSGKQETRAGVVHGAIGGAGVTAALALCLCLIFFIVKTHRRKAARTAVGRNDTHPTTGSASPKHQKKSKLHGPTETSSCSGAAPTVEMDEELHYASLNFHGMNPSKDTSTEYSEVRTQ
# Protocol summary: alanine scan, flow cytometry, HEK293-T;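 further: antibody binding to each alanine-substituted CD33 mutant expressed transiently in HEK293-T, read as fluorescence minus background, mean of duplicates, relative to wild-type CD33 set as 100%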
Metric: Mean % WT Binding (% WT binding)

>>> quantitative_result("Refmab #2 (antibody, V domains shown, The alanine scan used IgG or Fab) VH: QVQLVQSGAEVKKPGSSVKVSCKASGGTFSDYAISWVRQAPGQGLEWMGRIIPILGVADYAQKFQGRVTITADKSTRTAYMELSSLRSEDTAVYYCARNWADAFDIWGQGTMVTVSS VL: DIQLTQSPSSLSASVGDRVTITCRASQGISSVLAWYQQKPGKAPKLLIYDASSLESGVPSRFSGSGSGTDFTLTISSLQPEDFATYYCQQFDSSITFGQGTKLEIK")
119
